Tested on: HCT-116
protocolText: cells
Format: functional, cell-based
conditionDetails: Homo sapiens
Description: SANGER: Inhibition of human HCT-116 cell growth in a cell viability assay.

- molecularString: "CN(NC(=O)CC(=O)NN(C)C(=S)c1ccccc1)C(=S)c1ccccc1"
  IC50: "40 nM"
- molecularString: "CN(C)CCOc1ccc(-c2nc(-c3ccncc3)c(-c3ccc4c(c3)CC/C4=N\\O)[nH]2)cc1"
  IC50: "> 5000 nM"
- molecularString: "CS(=O)(=O)N1CCN(Cc2cc3nc(-c4cccc5[nH]ncc45)nc(N4CCOCC4)c3s2)CC1"
  IC50: "> 4000 nM"

----------
Tested on: C3A;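 note: growth inhibition of C3A human cells, quantified with a cell viability readout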
protocolText: cells
Format: functional, cell-based
conditionDetails: Homo sapiens
Description: SANGER: Inhibition of human C3A cell growth in a cell viability assay.
Listed below: IC50 values for each entry.

- molecularString: "CN(NC(=O)CC(=O)NN(C)C(=S)c1ccccc1)C(=S)c1ccccc1"
  IC50: "> 0.2 µM"
- molecularString: "CCCCCCCCCCCC1=C(O)C(=O)C=C(O)C1=O"
  IC50: "15.4 µM"
- molecularString: "NC(=O)c1ccc(N(C(N)=O)c2c(F)cccc2F)nc1-c1ccc(F)cc1F"
  IC50: "> 2 µM"
- molecularString: "O=C(NCCCNc1nc(Nc2cccc(NC(=O)N3CCCC3)c2)ncc1I)c1cccs1"
  IC50: "> 5 µM"
- molecularString: "OC[C@H](Cc1ccccc1)Nc1nc(Oc2ccc3c(c2)CCC3)nc2c1ncn2Cc1ccc(-c2ccccc2)cc1"
  IC50: "> 10.2 µM"
- molecularString: "Cc1ccc(C(=O)Nc2ccc(CN3CCN(C)CC3)c(C(F)(F)F)c2)cc1C#Cc1cnc2cccnn12"
  IC50: "> 0.512 µM"

----------
System: ETK-1;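 note: growth inhibition of human ETK-1 cells, read out with a cell viability assay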
protocolText: cells
Assay type: functional, cell-based, Homo sapiens
conditionDetails: Homo sapiens, ETK-1
Description: SANGER: Inhibition of human ETK-1 cell growth in a cell viability assay.
readout: IC50

- compound: "NC(=O)c1ccc(N(C(N)=O)c2c(F)cccc2F)nc1-c1ccc(F)cc1F"
  readout: "IC50"
  assayValue: "> 2 µM"
- compound: "C/C(=C\\c1csc(C)n1)[C@@H]1C[C@@H]2O[C@]2(C)CCC[C@H](C)[C@H](O)[C@@H](C)C(=O)C(C)(C)[C@@H](O)CC(=O)O1"
  readout: "IC50"
  assayValue: "0.000979 µM"
- compound: "Cc1ccc(NC(=O)c2ccc(CN3CCN(C)CC3)cc2)cc1Nc1nccc(-c2cccnc2)n1"
  readout: "IC50"
  assayValue: "> 2 µM"
- compound: "C=CC(=O)N1CCCC(Nc2nc(Nc3ccc(N(C)C(=O)CC)cc3)nc3[nH]cnc23)C1 (centres undefined)"
  readout: "IC50"
  assayValue: "> 10.2 µM"
- compound: "NC1(c2ccc(-c3nc4ccn5c(=O)[nH]nc5c4cc3-c3ccccc3)cc2)CCC1"
  readout: "IC50"
  assayValue: "> 4 µM"
- compound: "OC[C@H](Cc1ccccc1)Nc1nc(Oc2ccc3c(c2)CCC3)nc2c1ncn2Cc1ccc(-c2ccccc2)cc1"
  readout: "IC50"
  assayValue: "> 10.2 µM"
- compound: "COc1ccc(N(C(=O)Oc2c(C)cccc2C)c2ccnc(Nc3ccc(N4CCN(C)CC4)cc3)n2)c(OC)c1"
  readout: "IC50"
  assayValue: "> 5.12 µM"
- compound: "CN(NC(=O)CC(=O)NN(C)C(=S)c1ccccc1)C(=S)c1ccccc1"
  readout: "IC50"
  assayValue: "0.035 µM"
- compound: "O=C1NC(=O)c2c1c(-c1ccccc1Cl)cc1[nH]c3ccc(O)cc3c21"
  readout: "IC50"
  assayValue: "> 2 µM"
